Catalogue of pIC50 readings, one per entry.
- Tested Target: D(2) dopamine receptor (Homo sapiens, UniProt P14416)
- Sequence (P14416 whole entry): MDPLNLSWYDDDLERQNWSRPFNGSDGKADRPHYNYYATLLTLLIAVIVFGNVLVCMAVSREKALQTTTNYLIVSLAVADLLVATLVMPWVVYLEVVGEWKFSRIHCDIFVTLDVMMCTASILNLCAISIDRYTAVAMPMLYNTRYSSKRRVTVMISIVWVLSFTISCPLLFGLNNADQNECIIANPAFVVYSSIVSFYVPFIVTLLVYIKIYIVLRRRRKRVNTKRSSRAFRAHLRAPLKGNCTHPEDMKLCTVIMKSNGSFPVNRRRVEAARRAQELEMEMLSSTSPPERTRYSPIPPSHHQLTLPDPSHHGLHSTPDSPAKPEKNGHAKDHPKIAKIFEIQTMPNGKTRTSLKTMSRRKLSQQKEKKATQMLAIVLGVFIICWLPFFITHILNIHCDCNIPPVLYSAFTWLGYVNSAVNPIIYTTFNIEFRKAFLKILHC
- Assay Summary: Displacement of [3H]Spiprone from human dopamine D2 receptor expressed in HEK293 cells
Please keep in mind that pIC50 is minus log10 of the molar concentration; only the number is needed.

These solved cases illustrate the format of a correct answer.
{"Compound": "COc1cc2c(cc1O)[C@@H]1Cc3c(CO)c(OC)cc(OC)c3CN1CC2", "Tested Target": "D(2) dopamine receptor (Homo sapiens, UniProt P14416)", "Recorded Result": 6.29}
{"Compound": "COc1cc2c(cc1O)[C@@H]1Cc3ccc(O)c(OC)c3CN1CC2 [STEPHOLIDINE]", "Tested Target": "D(2) dopamine receptor (Homo sapiens, UniProt P14416)", "Recorded Result": 6.98}
{"Compound": "COc1ccc2c(c1)C[C@H]1c3cc(O)c(OC)cc3CCN1C2", "Tested Target": "D(2) dopamine receptor (Homo sapiens, UniProt P14416)", "Recorded Result": 6.06}
{"Compound": "COc1cc2c(cc1O)[C@@H]1Cc3cc(C)cc(C)c3CN1CC2", "Tested Target": "D(2) dopamine receptor (Homo sapiens, UniProt P14416)", "Recorded Result": 6.34}

-- ask Requested read-out: pIC50. Entry: `COc1cc2c(cc1OC)[C@@H]1Cc3cc(C)cc(C)c3CN1CC2`
-- reply 5.94

---

- Tested Target: UniProt P08908
- Sequence (P08908 whole entry): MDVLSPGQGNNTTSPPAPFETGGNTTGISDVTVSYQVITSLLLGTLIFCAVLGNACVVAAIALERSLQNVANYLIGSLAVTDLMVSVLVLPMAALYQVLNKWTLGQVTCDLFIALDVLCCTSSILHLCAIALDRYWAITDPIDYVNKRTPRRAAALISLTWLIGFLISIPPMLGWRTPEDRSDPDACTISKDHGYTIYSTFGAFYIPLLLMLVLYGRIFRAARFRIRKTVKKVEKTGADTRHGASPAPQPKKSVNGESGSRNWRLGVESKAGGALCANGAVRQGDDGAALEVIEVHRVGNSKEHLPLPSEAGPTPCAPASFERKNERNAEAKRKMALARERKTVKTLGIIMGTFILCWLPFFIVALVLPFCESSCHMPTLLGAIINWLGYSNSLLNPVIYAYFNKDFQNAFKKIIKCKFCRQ
- Assay Summary: Displacement of [3H]-8-OH-DPAT from human 5HT1A receptor expressed in HEK293 cells at 10 uM
- Type: cell-based
Measurement Kind: inhibition (%)
Report as a plain number; the unit % is understood.

These solved cases illustrate the format of a correct answer.
{"Compound": "COc1ccc2c(c1)C[C@H]1c3cc(OCc4ccccc4)c(OC)cc3CCN1C2", "Measurement Kind": "inhibition", "Recorded Result": 37.3}
{"Compound": "COc1cc(OC)c2c(c1CO)C[C@H]1c3c(cc(OC)c(OC)c3OC)CCN1C2", "Measurement Kind": "inhibition", "Recorded Result": 67.4}
{"Compound": "COc1cc2c(cc1OC)[C@@H]1Cc3cc(C)cc(C)c3CN1CC2", "Measurement Kind": "inhibition", "Recorded Result": 54.8}
{"Compound": "COc1cc2c(c(OC)c1)CN1CCc3cc(OC)c(OCc4ccccc4)c(OC)c3[C@@H]1C2", "Measurement Kind": "inhibition", "Recorded Result": 43.7}
{"Compound": "COc1cc2c(c(OC)c1)CN1CCc3cc(OC)cc(OC)c3[C@@H]1C2", "Measurement Kind": "inhibition", "Recorded Result": 61.7}

-- ask Requested read-out: inhibition. Entry: COc1cc2c(cc1OC)C1Cc3cc(C)cc(C)c3CN1CC2 (racemic)
-- reply 28.4

-- ask Entry to check: `COc1cc2c(c(OC)c1)CN1CCc3cc4c(cc3[C@@H]1C2)OCO4`
-- reply 57.6

-- ask Entry to check: `COc1ccc2c(c1)C[C@H]1c3cc(OC)c(OC)cc3CCN1C2`
-- reply 57.4

---

Catalogue of inhibition readings, one per entry.
- Tested Target: UniProt P21728
- Assay Summary: Displacement of [3H]SCH23390 from human dopamine D1 receptor expressed in HEK293 cells at 10 uM
- Assay type: cell-based
Report as a plain number; the unit % is understood.

These solved cases illustrate the format of a correct answer.
{"Substance Smiles": "COc1ccc2c(c1)C[C@H]1c3cc4c(cc3CCN1C2)OCO4", "Unit Abbreviation": "%", "inhibition": 83.2}
{"Substance Smiles": "COc1cc2c(c(OC)c1)CN1CCc3cc(OC)c(OCc4ccccc4)c(OC)c3[C@@H]1C2", "Unit Abbreviation": "%", "inhibition": 59.3}
{"Substance Smiles": "COc1cc(OC)c2c(c1CO)CCN1Cc3cc4c(cc3C[C@@H]21)OCO4", "Unit Abbreviation": "%", "inhibition": 17.4}
{"Substance Smiles": "COc1cc(OC)c2c(c1CO)C[C@H]1c3c(cc(OC)c(OC)c3OC)CCN1C2", "Unit Abbreviation": "%", "inhibition": 7.37}

-- ask Identify the measured inhibition of `COc1ccc(OC)c2c1C[C@H]1c3c(OC)cc(OC)c(CO)c3CCN1C2` for UniProt P21728.
-- reply 48.8

---

- Tested Target: UniProtKB P14416
- Assay Summary: Displacement of [3H]Spiprone from human dopamine D2 receptor expressed in HEK293 cells at 10 uM
- Format: cell-based
Measurement Kind: inhibition

{"Substance Smiles": "COc1cc2c(cc1OC)[C@@H]1Cc3c(CO)c(OC)cc(OC)c3CN1CC2", "inhibition": "39.5%"}

Turning to the following molecule.
-- ask Requested read-out: inhibition. Entry: `COc1cc2c(c(OC)c1)CN1CCc3cc4c(cc3[C@@H]1C2)OCO4`
-- reply 1.02%

---

- Tested Target: 5-hydroxytryptamine receptor 2A (Homo sapiens) (UniProt P28223)
- Sequence (P28223 whole entry): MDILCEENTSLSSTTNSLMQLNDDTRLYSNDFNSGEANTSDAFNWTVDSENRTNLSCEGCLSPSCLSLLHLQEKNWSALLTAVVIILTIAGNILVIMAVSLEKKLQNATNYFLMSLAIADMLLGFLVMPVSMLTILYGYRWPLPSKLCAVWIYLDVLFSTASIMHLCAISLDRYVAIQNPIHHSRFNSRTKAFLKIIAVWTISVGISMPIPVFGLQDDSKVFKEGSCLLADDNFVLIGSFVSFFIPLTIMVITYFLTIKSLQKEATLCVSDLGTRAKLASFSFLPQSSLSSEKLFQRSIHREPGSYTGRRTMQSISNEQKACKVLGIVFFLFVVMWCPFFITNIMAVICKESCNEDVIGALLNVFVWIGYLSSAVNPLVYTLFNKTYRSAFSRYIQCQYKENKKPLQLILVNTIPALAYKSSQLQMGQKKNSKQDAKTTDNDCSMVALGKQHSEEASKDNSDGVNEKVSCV
- Assay Summary: Displacement of [3H]Ketanserin from human 5HT2A receptor expressed in HEK293 cells at 10 uM
- Assay type: cell-based
Consider the following partition of reported inhibition into named classes: low-valued: < 20%; mid-valued: ≥ 20% and < 50%; high-valued: ≥ 50%

{"Compound": "COc1cc2c(c(OC)c1)CN1CCc3cc(OC)c(OCc4ccccc4)c(OC)c3[C@@H]1C2", "Group": "high-valued"}
{"Compound": "COc1cc2c(c(OC)c1)CN1CCc3cc4c(cc3[C@@H]1C2)OCO4", "Group": "mid-valued"}
{"Compound": "COc1cc2c(c(OC)c1)CN1CCc3cc(OC)c(O)cc3[C@@H]1C2", "Group": "mid-valued"}
{"Compound": "COc1cc(OC)c2c(c1CO)C[C@H]1c3c(cc(OC)c(OC)c3OC)CCN1C2", "Group": "high-valued"}
{"Compound": "COc1cc2c(cc1O)[C@@H]1Cc3ccc(O)c(OC)c3CN1CC2 [STEPHOLIDINE]", "Group": "mid-valued"}

Moving on to the next compound.
-- ask Dear colleague, I would appreciate it if you could identify the bin for `COc1ccc2c(c1)C[C@H]1c3cc(OCc4ccccc4)c(OC)cc3CCN1C2` and reply at your convenience.
-- reply low-valued

---

Catalogue of log10 of IC50 readings, one per entry.
- Tested Target: D(1A) dopamine receptor (Homo sapiens, UniProt P21728)
- Sequence (P21728 whole entry): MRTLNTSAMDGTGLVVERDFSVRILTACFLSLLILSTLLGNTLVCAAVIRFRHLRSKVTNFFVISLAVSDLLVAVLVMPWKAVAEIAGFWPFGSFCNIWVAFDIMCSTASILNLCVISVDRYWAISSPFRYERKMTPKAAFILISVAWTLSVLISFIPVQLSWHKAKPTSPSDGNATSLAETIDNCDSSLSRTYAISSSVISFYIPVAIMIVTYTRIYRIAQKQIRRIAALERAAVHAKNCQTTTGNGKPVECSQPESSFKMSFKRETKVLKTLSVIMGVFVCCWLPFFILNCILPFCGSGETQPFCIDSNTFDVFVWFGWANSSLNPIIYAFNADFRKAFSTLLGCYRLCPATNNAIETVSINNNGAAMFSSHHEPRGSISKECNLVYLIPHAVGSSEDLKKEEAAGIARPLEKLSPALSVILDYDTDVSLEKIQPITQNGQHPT
- Assay Summary: Displacement of [3H]SCH23390 from human dopamine D1 receptor expressed in HEK293 cells
- Format: cell-based
All values: log10 IC50 [nM].

These solved cases illustrate the format of a correct answer.
{"Compound": "COc1cc2c(c(OC)c1)CN1CCc3cc(OC)c(O)cc3[C@@H]1C2", "Tested Target": "D(1A) dopamine receptor (Homo sapiens, UniProt P21728)", "log10 of IC50": 0.69}
{"Compound": "COc1cc2c(cc1OC)C1Cc3cc(C)cc(C)c3CN1CC2 (racemic)", "Tested Target": "D(1A) dopamine receptor (Homo sapiens, UniProt P21728)", "log10 of IC50": 3.47}
{"Compound": "COc1cc2c(cc1O)[C@@H]1Cc3ccc(O)c(OC)c3CN1CC2", "Tested Target": "D(1A) dopamine receptor (Homo sapiens, UniProt P21728)", "log10 of IC50": 1.09}
{"Compound": "COc1cc2c(c(OC)c1)CN1CCc3cc(OC)cc(OC)c3[C@@H]1C2", "Tested Target": "D(1A) dopamine receptor (Homo sapiens, UniProt P21728)", "log10 of IC50": 1.16}
{"Compound": "COc1cc2c(c(OC)c1)CN1CCc3cc(OC)c(O)c(OC)c3[C@@H]1C2", "Tested Target": "D(1A) dopamine receptor (Homo sapiens, UniProt P21728)", "log10 of IC50": 1.99}

-- ask Requested read-out: log10 of IC50. Entry: `COc1cc2c(cc1O)[C@@H]1Cc3cc(C)cc(C)c3CN1CC2`
-- reply 1.75

-- ask Entry to check: `COc1cc2c(c(OC)c1)CN1CCc3cc(OC)c(OC)cc3[C@@H]1C2`
-- reply 2.28

-- ask Entry to check: `COc1cc2c(cc1OC)[C@@H]1Cc3c(CO)c(OC)cc(OC)c3CN1CC2`
-- reply 2.06

---

Catalogue of pKi readings, one per entry.
- Tested Target: D(1A) dopamine receptor (Homo sapiens)
- Assay Summary: Displacement of [3H]SCH23390 from human dopamine D1 receptor expressed in HEK293 cells
Please keep in mind that pKi is minus log10 of the molar concentration; only the number is needed.

These solved cases illustrate the format of a correct answer.
{"Compound": "COc1cc2c(c(OC)c1)CN1CCc3cc(OC)c(OC)cc3[C@@H]1C2", "pKi": 6.97}
{"Compound": "COc1cc2c(cc1O)[C@@H]1Cc3ccc(O)c(OC)c3CN1CC2", "pKi": 8.21}

-- ask Requested read-out: pKi. Entry: `COc1cc2c(cc1O)[C@@H]1Cc3cc(C)cc(C)c3CN1CC2`
-- reply 7.54

-- ask Entry to check: COc1cc2c(cc1OC)C1Cc3cc(C)cc(C)c3CN1CC2 (racemic)
-- reply 5.84
